- Tested on: 556581-035-R-J1-PDC complex spheroid growth
- test protocol: Anticancer human tumor 556581-035-R-J1-PDC patient-derived ovarian carcinoma cell line growth inhibition [AhR]
- experimental context: second compound 0.1 µM; first compound 3.16 µM; hits give low values
Give measured viability, T/C for each item. Keep answers brief.

Example cases with answers are listed next.
query: Please report the recorded viability, T/C for COc1cc(Nc2ncc3c(n2)-c2ccc(Cl)cc2C(c2c(F)cccc2OC)=NC3)ccc1C(=O)O + Cc1ccccc1N=Nc1ccc(NC(=O)c2ccnn2C)c(C)c1 .
result: 60.4%

query: So what's the measured viability, T/C for this one? COc1cc(C2c3cc4c(cc3C(OC3OC5COC(C)OC5C(O)C3O)C3COC(=O)C23)OCO4)cc(OC)c1O (configuration not stated) + Cc1cncc(-c2nc(NCCc3c[nH]c4ccccc34)c3ncn(C(C)C)c3n2)c1
result: 62.2%

query: GET /values?readout=viability, T/C&item= CC1COCCN1c1cc(C2(S(C)(=N)=O)CC2)nc(-c2ccnc3[nH]ccc23)n1 (configuration not stated) + CC(CO)NC(=O)c1cc(-c2ccc(Cl)cc2)nn(-c2cnn(C)c2)c1=O
result: 86.2%

Batch: viability, T/C for all items listed.
1. COc1ccc([C@@H](O)c2cc(-c3ncnc4cc(N5CCOCC5)ccc34)c(F)cc2Cl)nn1 + CC(CO)NC(=O)c1cc(-c2ccc(Cl)cc2)nn(-c2cnn(C)c2)c1=O
2. Nc1ccn(C2OC(CO)C(O)C2(F)F)c(=O)n1 (configuration not stated) + CC(CO)NC(=O)c1cc(-c2ccc(Cl)cc2)nn(-c2cnn(C)c2)c1=O

result:
1. 61%
2. 37.5%

For every item in the list below, what is its measured viability, T/C?
1. CC1COCCN1c1cc(C2(S(C)(=N)=O)CC2)nc(-c2ccnc3[nH]ccc23)n1 (configuration not stated) + Cc1cncc(-c2nc(NCCc3c[nH]c4ccccc34)c3ncn(C(C)C)c3n2)c1
2. COc1cc(C2c3cc4c(cc3C(OC3OC5COC(C)OC5C(O)C3O)C3COC(=O)C23)OCO4)cc(OC)c1O (configuration not stated) + CC(CO)NC(=O)c1cc(-c2ccc(Cl)cc2)nn(-c2cnn(C)c2)c1=O
3. COc1cc(Nc2ncc3c(n2)-c2ccc(Cl)cc2C(c2c(F)cccc2OC)=NC3)ccc1C(=O)O + Cc1cncc(-c2nc(NCCc3c[nH]c4ccccc34)c3ncn(C(C)C)c3n2)c1
4. NS(=O)(=O)OCC1CC(n2ccc3c(NC4CCc5ccccc54)ncnc32)CC1O (configuration not stated) + CC(CO)NC(=O)c1cc(-c2ccc(Cl)cc2)nn(-c2cnn(C)c2)c1=O
5. NS(=O)(=O)OCC1CC(n2ccc3c(NC4CCc5ccccc54)ncnc32)CC1O (configuration not stated) + Cc1cncc(-c2nc(NCCc3c[nH]c4ccccc34)c3ncn(C(C)C)c3n2)c1
6. COc1ccc([C@@H](O)c2cc(-c3ncnc4cc(N5CCOCC5)ccc34)c(F)cc2Cl)nn1 + Cc1cncc(-c2nc(NCCc3c[nH]c4ccccc34)c3ncn(C(C)C)c3n2)c1

result:
["73.5%", "66%", "71.1%", "107%", "81.1%", "51.4%"]

query: What value of measured viability, T/C is listed for O=C(C=Cc1cccc(S(=O)(=O)Nc2ccccc2)c1)NO + Cc1cncc(-c2nc(NCCc3c[nH]c4ccccc34)c3ncn(C(C)C)c3n2)c1 ?
result: 32%

----------
- Tested on: 556581-035-R-J1-PDC complex spheroid growth
- test protocol: Anticancer human tumor 556581-035-R-J1-PDC cell line growth inhibition [AhR];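 note: compound exposure lasted 7 days; 100% = DMSO vehicle control growth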
- experimental context: second compound 0.316 µM; first compound 0.1 µM; hits give low values
Provide the reported viability, T/C of each item.
Numbers only, in %.

query: Would you mind telling me what viability, T/C value was observed for CC[C@@]1(O)C(=O)OCc2c1cc1n(c2=O)Cc2cc3c(CN(C)C)c(O)ccc3nc2-1 + CC(CO)NC(=O)c1cc(-c2ccc(Cl)cc2)nn(-c2cnn(C)c2)c1=O ?
result: 58.6

query: Which value of viability, T/C has been reported for COc1cc(C2c3cc4c(cc3C(OC3OC5COC(C)OC5C(O)C3O)C3COC(=O)C23)OCO4)cc(OC)c1O (stereo unspecified) + Cc1ccccc1N=Nc1ccc(NC(=O)c2ccnn2C)c(C)c1 in the records?
result: 106

query: State the recorded viability, T/C for this entry: CC(C)c1c(-c2ccccc2)nc2c(C#N)c[nH]n2c1=O + Cc1cncc(-c2nc(NCCc3c[nH]c4ccccc34)c3ncn(C(C)C)c3n2)c1
result: 110

query: Look up viability, T/C for this molecule: COc1ccc([C@@H](O)c2cc(-c3ncnc4cc(N5CCOCC5)ccc34)c(F)cc2Cl)nn1 + Cc1cncc(-c2nc(NCCc3c[nH]c4ccccc34)c3ncn(C(C)C)c3n2)c1
result: 105

query: # lookup: viability, T/C of Nc1ccn(C2OC(CO)C(O)C2(F)F)c(=O)n1 (stereo unspecified) + Cc1cncc(-c2nc(NCCc3c[nH]c4ccccc34)c3ncn(C(C)C)c3n2)c1
result: 34.9

Next up:
query: Tell me the measured viability, T/C of NS(=O)(=O)OCC1CC(n2ccc3c(NC4CCc5ccccc54)ncnc32)CC1O (stereo unspecified) + Cc1cncc(-c2nc(NCCc3c[nH]c4ccccc34)c3ncn(C(C)C)c3n2)c1 , please.
result: 104

----------
- Tested on: 556581-035-R-J1-PDC complex spheroid growth
- test protocol: Anticancer human tumor 556581-035-R-J1-PDC cell line growth inhibition [AhR];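 note: compound exposure lasted 7 days; 100% = DMSO vehicle control growth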
- experimental context: second compound 0.316 µM; first compound 0.1 µM; hits give low values
Would you kindly list viability, T/C for each of these molecules?
Give bare numbers, in %.

Take a look at these entries with their results.
query: Return reported viability, T/C; argument: COc1cccc2c1C(=O)c1c(O)c3c(c(O)c1C2=O)CC(O)(C(=O)CO)CC3OC1CC(N)C(O)C(C)O1 (stereo unspecified) + Cc1cncc(-c2nc(NCCc3c[nH]c4ccccc34)c3ncn(C(C)C)c3n2)c1
result: 82.5

query: For the molecule CC1(C)CCC(CN2CCN(c3ccc(C(=O)NS(=O)(=O)c4ccc(NCC5CCOCC5)c([N+](=O)[O-])c4)c(Oc4cnc5[nH]ccc5c4)c3)CC2)=C(c2ccc(Cl)cc2)C1 + Cc1ccccc1N=Nc1ccc(NC(=O)c2ccnn2C)c(C)c1 , what viability, T/C is on record?
result: 105

query: So what's the measured viability, T/C for this one? COc1cc(Nc2ncc3c(n2)-c2ccc(Cl)cc2C(c2c(F)cccc2OC)=NC3)ccc1C(=O)O + Cc1ccccc1N=Nc1ccc(NC(=O)c2ccnn2C)c(C)c1
result: 73.5

query: Given the entry O=C(c1cc(Cc2n[nH]c(=O)c3ccccc23)ccc1F)N1CCN(C(=O)C2CC2)CC1 + CC(CO)NC(=O)c1cc(-c2ccc(Cl)cc2)nn(-c2cnn(C)c2)c1=O , report its measured viability, T/C.
result: 98

query: Could you share which viability, T/C value was measured for COc1cc(Nc2ncc3c(n2)-c2ccc(Cl)cc2C(c2c(F)cccc2OC)=NC3)ccc1C(=O)O + Cc1cncc(-c2nc(NCCc3c[nH]c4ccccc34)c3ncn(C(C)C)c3n2)c1 ?
result: 87.9

Let us examine a further case.
query: Need viability, T/C, item Nc1ccccc1NC(=O)c1ccc(CNC(=O)OCc2cccnc2)cc1 + Cc1cncc(-c2nc(NCCc3c[nH]c4ccccc34)c3ncn(C(C)C)c3n2)c1
result: 121

----------
- System: 556581-035-R-J1-PDC complex spheroid growth
- test protocol: Anticancer human tumor 556581-035-R-J1-PDC cell line growth inhibition [AhR];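 note: compound exposure lasted 7 days; 100% = DMSO vehicle control growth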
- experimental context: second compound 10 µM; first compound 3.16 µM; hits give low values
So I've got a bunch of molecules here, and I need their viability, T/C values.

State recorded viability, T/C for all listed molecules.
1. NS(=O)(=O)OCC1CC(n2ccc3c(NC4CCc5ccccc54)ncnc32)CC1O (centres undefined) + Cc1ccccc1N=Nc1ccc(NC(=O)c2ccnn2C)c(C)c1
2. COc1cccc2c1C(=O)c1c(O)c3c(c(O)c1C2=O)CC(O)(C(=O)CO)CC3OC1CC(N)C(O)C(C)O1 (centres undefined) + CC(CO)NC(=O)c1cc(-c2ccc(Cl)cc2)nn(-c2cnn(C)c2)c1=O
3. COc1cccc2c1C(=O)c1c(O)c3c(c(O)c1C2=O)CC(O)(C(=O)CO)CC3OC1CC(N)C(O)C(C)O1 (centres undefined) + Cc1ccccc1N=Nc1ccc(NC(=O)c2ccnn2C)c(C)c1
4. O=C(c1cc(Cc2n[nH]c(=O)c3ccccc23)ccc1F)N1CCN(C(=O)C2CC2)CC1 + Cc1cncc(-c2nc(NCCc3c[nH]c4ccccc34)c3ncn(C(C)C)c3n2)c1
5. COc1cc(C2c3cc4c(cc3C(OC3OC5COC(C)OC5C(O)C3O)C3COC(=O)C23)OCO4)cc(OC)c1O (centres undefined) + Cc1ccccc1N=Nc1ccc(NC(=O)c2ccnn2C)c(C)c1

result:
1. 83.6%
2. 1.46%
3. 2.04%
4. 92.7%
5. 69.7%

# return viability, T/C for each item in the list
1. COc1cccc2c1C(=O)c1c(O)c3c(c(O)c1C2=O)CC(O)(C(=O)CO)CC3OC1CC(N)C(O)C(C)O1 (centres undefined) + Cc1cncc(-c2nc(NCCc3c[nH]c4ccccc34)c3ncn(C(C)C)c3n2)c1
2. CC1(C)CCC(CN2CCN(c3ccc(C(=O)NS(=O)(=O)c4ccc(NCC5CCOCC5)c([N+](=O)[O-])c4)c(Oc4cnc5[nH]ccc5c4)c3)CC2)=C(c2ccc(Cl)cc2)C1 + Cc1cncc(-c2nc(NCCc3c[nH]c4ccccc34)c3ncn(C(C)C)c3n2)c1
3. COc1cc(C2c3cc4c(cc3C(OC3OC5COC(C)OC5C(O)C3O)C3COC(=O)C23)OCO4)cc(OC)c1O (centres undefined) + CC(CO)NC(=O)c1cc(-c2ccc(Cl)cc2)nn(-c2cnn(C)c2)c1=O

result:
1.87%
81.2%
59.7%

query: Report viability, T/C for O=C(c1cc(Cc2n[nH]c(=O)c3ccccc23)ccc1F)N1CCN(C(=O)C2CC2)CC1 + Cc1ccccc1N=Nc1ccc(NC(=O)c2ccnn2C)c(C)c1 please.
result: 82.4%
